# assay_name: Tmax in Sprague-Dawley rat at 5 mg/kg, iv measured for 24 hrs
# Format: ADME, organism-based
# experimental_parameters: in vivo
observable: Tmax

IN: Endpoint output: Tmax of COc1cc(CC(=O)N2CCC(NC(=O)NCc3ccc(OC(F)(F)F)cc3)CC2)cc(OC)c1 . Value?
OUT: 4.8 min

----------
# assay_name: Clearance in Sprague-Dawley rat at 5 mg/kg, iv measured for 24 hrs
# Type: ADME, organism-based
# experimental_parameters: in vivo
observable: clearance

IN: Endpoint output: clearance of COc1cc(CC(=O)N2CCC(NC(=O)NCc3ccc(OC(F)(F)F)cc3)CC2)cc(OC)c1 . Value?
OUT: 38.8 mL/min/kg

----------
# assay_name: Half life in Sprague-Dawley rat at 20 mg/kg, po measured for 24 hrs
# Format: ADME, organism-based
# experimental_parameters: in vivo
observable: half-life (h)
Field: numeric (h). Do not append units.

IN: Endpoint output: half-life of COc1cc(CC(=O)N2CCC(NC(=O)NCc3ccc(OC(F)(F)F)cc3)CC2)cc(OC)c1 . Value?
OUT: 1.89

----------
# assay_name: Tmax in Sprague-Dawley rat at 20 mg/kg, po measured for 24 hrs
# Type: ADME, organism-based
# experimental_parameters: in vivo
observable: Tmax (min)
Field: numeric (min). Do not append units.

IN: Endpoint output: Tmax of COc1cc(CC(=O)N2CCC(NC(=O)NCc3ccc(OC(F)(F)F)cc3)CC2)cc(OC)c1 . Value?
OUT: 30

----------
# assay_name: Ratio of AUC (0 to 24 hrs) in kidney to plasma in C57BL/6J mouse at 20 mg/kg, po measured for 24 hrs
# Assay type: ADME, organism-based
# experimental_parameters: kidney and plasma, read-out: Ratio AUC
observable: Kp at 24 h
Output: the number by itself.

COc1cc(CC(=O)N2CCC(NC(=O)NCc3ccc(OC(F)(F)F)cc3)CC2)cc(OC)c1 :: 32.4

As a next step, examine the molecule that follows.
IN: Endpoint output: Kp at 24 h of CCC(=O)N1CCC(CNC(=O)NC2CCN(C(=O)Cc3cc(OC)cc(OC)c3)CC2)CC1 . Value?
OUT: 135

----------
# assay_name: Cmax in kidney of C57BL/6J mouse at 20 mg/kg, po measured for 24 hrs
# Assay type: ADME, organism-based
observable: Cmax (ng/g)
Field: numeric (ng/g). Do not append units.

COc1cc(CC(=O)N2CCC(NC(=O)NCc3ccc(OC(F)(F)F)cc3)CC2)cc(OC)c1 :: 4540

As a next step, examine the molecule that follows.
IN: Endpoint output: Cmax of CCC(=O)N1CCC(CNC(=O)NC2CCN(C(=O)Cc3cc(OC)cc(OC)c3)CC2)CC1 . Value?
OUT: 4010

----------
# experimental_system: Bifunctional epoxide hydrolase 2 (Mus musculus, UniProt P34914)
# Sequence (P34914 whole entry): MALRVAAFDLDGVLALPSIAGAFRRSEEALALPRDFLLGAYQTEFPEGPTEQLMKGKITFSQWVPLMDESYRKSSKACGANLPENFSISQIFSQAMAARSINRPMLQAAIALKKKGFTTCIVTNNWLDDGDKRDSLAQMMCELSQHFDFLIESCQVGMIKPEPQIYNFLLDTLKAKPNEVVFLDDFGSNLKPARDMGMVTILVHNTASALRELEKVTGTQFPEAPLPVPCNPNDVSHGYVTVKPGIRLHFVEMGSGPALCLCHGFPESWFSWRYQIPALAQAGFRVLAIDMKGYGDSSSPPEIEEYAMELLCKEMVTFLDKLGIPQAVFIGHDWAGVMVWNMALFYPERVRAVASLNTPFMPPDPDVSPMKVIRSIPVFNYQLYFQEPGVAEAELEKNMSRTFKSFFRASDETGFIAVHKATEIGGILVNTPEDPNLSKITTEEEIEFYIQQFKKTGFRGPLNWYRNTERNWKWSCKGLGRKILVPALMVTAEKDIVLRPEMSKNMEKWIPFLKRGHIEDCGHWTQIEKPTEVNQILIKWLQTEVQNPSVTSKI
# assay_name: biochemical
# Description: Inhibition of C57BL/6J mouse brain sEH using 14,15-EET as substrate preincubated for 15 mins followed by substrate addition by HPLC-MS analysis
Collected log10(IC50) values appear next to each entry.
Answers are given as log10 of IC50 in µM.

Study these solved cases before continuing.
CCC(=O)N1CCC(CNC(=O)Nc2ccc3cc(-c4cc(OC)cc(OC)c4)ncc3c2)CC1 :: -2.28
CCC(=O)N1CCC(CNC(=O)Nc2ccc3c(c2)CNC(c2cc(OC)cc(OC)c2)C3)CC1 (stereo not given) :: -1.40
COc1ccc(CC(=O)N2CCC(NC(=O)NCc3ccc(OC(F)(F)F)cc3)CC2)cc1OC :: -2.37
COc1cc(CC(=O)N2CCC(NC(=O)Nc3ccc(OC(F)(F)F)cc3)CC2)cc(OC)c1 :: -1.80
CCC(=O)N1CCC(CNC(=O)NC2CCN(C(=O)Cc3cccc(OC(F)(F)F)c3)CC2)CC1 :: -1.73
CCC(=O)N1CCC(CNC(=O)NC2CCN(C(=O)Cc3cccc(OC)c3)CC2)CC1 :: -2.21

IN: Endpoint output: log10(IC50) of COc1ccc(CC(=O)N2CCC(NC(=O)NCC(C)C)CC2)cc1OC . Value?
OUT: -1.69

IN: Endpoint output: log10(IC50) of CC(C)CNC(=O)NCCCCCNC(=O)Cc1ccc2c(c1)OCO2 . Value?
OUT: -0.58

IN: Endpoint output: log10(IC50) of CS(=O)(=O)c1ccc(CC(=O)N2CCC(NC(=O)NCc3ccc(OC(F)(F)F)cc3)CC2)cc1 . Value?
OUT: -2.42

IN: Endpoint output: log10(IC50) of CC(C)CNC(=O)NCCC/C=C/c1ccc2c(c1)OCO2 . Value?
OUT: -1.95

IN: Endpoint output: log10(IC50) of CC(C)CNC(=O)NCCCNC(=O)Cc1ccc2c(c1)OCO2 . Value?
OUT: 0.65

IN: Endpoint output: log10(IC50) of COc1cc(CC(=O)N2CCC(NC(=O)NCc3ccc(OC(F)(F)F)cc3)CC2)cc(OC)c1 . Value?
OUT: -3.29

IN: Endpoint output: log10(IC50) of CN(C)C(=O)N1CCC(NC(=O)Cc2ccc3c(c2)OCO3)CC1 . Value?
OUT: 0.81
